Source listed as the Immune Epitope Database (IEDB).

TEST_SYSTEM: HLA-A*01:01
TEST_NAME: IEDB peptide-MHC binding, purified MHC/direct/fluorescence; filed as Kd, often an IC50 or EC50 that approximates it; bounds were set here for any values at or beyond the usual limits of such assays
CONDITIONS: source organism: Human immunodeficiency virus type 1 (isolate YU2)
ENDPOINT: pKd
Answer as the number alone; pKd is minus log10 of concentration in mol/L.

Ask: Return value of pKd for input RIKQIINMW , no commentary.
Reply: 5.26

---

TEST_SYSTEM: HLA-A*29:02
TEST_NAME: IEDB peptide-MHC binding, purified MHC/direct/fluorescence; filed as Kd, often an IC50 or EC50 that approximates it; bounds were set here for any values at or beyond the usual limits of such assays
CONDITIONS: source organism: Yellow fever virus
ENDPOINT: Kd

Ask: For the sequence TKDTNDNNL , report Kd.
Reply: ≥ 20 µM
